- System: Hyperlipidemic Hamster
- protocol notes: In Vivo Assay of Hypolipidemic Agents Using the Hyperlipidemic Hamster
- Set-up: species or system Hamsters
- measurement conditions: dose 50 mpk; oral gavage once daily, seven days; versus control
- Method: In Vivo Assay of Hypolipidemic Agents Using the Hyperlipidemic Hamster Hamsters are separated into groups of six and given a control cholesterol diet (Purina Chow #5001 containing 0.5% cholesterol) for seven days. Diet consumption is monitored to determine dietary cholesterol exposure in the face of test compounds. The animals are dosed with the test compound once daily beginning with the initiaton of diet. […]
measurement label: % Reduction in cholesteryl esters (dose in mpk)

1. COc1ccc([C@@H]2CCc3ccccc3[C@H]2NC(=O)N(c2ccccc2)c2ccccc2)cc1 (relative stereo); -16 (50) %
2. O=C(N[C@@H]1c2ccccc2C[C@@H]1c1cc(Cl)c(O)c(Cl)c1)C(c1ccccc1)c1ccccc1 (relative stereo); -14 (50) %

Incoming: Short answer please: % Reduction in cholesteryl esters (dose in mpk), Hyperlipidemic Hamster, entry CCCCCCCC/C=C\CCCCCCCC(=O)N[C@@H]1c2ccccc2CC[C@H]1c1ccc(O)cc1 (relative stereo)
Outgoing: 0 (50) %

Incoming: Repeat with Cc1cc([C@H]2Cc3ccccc3[C@H]2NC(=O)C(c2ccccc2)c2ccccc2)ccc1O (relative stereo)
Outgoing: -66 (50) %

Incoming: Repeat with Cc1cc([C@H]2Cc3ccccc3[C@H]2NC(=O)C(c2ccccc2)c2ccccc2)cc(C)c1O (relative stereo)
Outgoing: -60 (50) %

Incoming: Repeat with COc1ccc([C@H]2CCc3ccccc3[C@H]2NC(=O)C(c2ccccc2)c2ccccc2)cc1 (relative stereo)
Outgoing: 0 (50) %

Incoming: Repeat with O=C(N[C@@H]1c2ccccc2C[C@@H]1c1ccc(O)c(Cl)c1)C(c1ccccc1)c1ccccc1 (relative stereo)
Outgoing: -40 (50) %

* * *

Documented % Reduction in cholesteryl esters (dose in mpk) across a set of molecules
- System: Hyperlipidemic Hamster
- protocol notes: In Vivo Assay of Hypolipidemic Agents Using the Hyperlipidemic Hamster
- Design: species or system Hamsters
- measurement conditions: dose 50 mpk; oral gavage once daily, seven days; versus control

Answered examples (2):
1. O=C(N[C@@H]1c2ccccc2C[C@@H]1c1ccc(O)cc1)C(c1ccccc1)c1ccccc1 (relative stereo) [Example 3]; -89%
2. COc1ccc([C@H]2Cc3ccccc3[C@H]2NC(=O)C(c2ccccc2)c2ccccc2)cc1 (relative stereo) [Example 2]; -17 (50) %

Incoming: Short answer please: % Reduction in cholesteryl esters (dose in mpk), Hyperlipidemic Hamster, entry O=C(N[C@@H]1c2ccccc2C[C@@H]1c1ccc(O)c(Br)c1)C(c1ccccc1)c1ccccc1 (relative stereo) [Example 7]
Outgoing: -40 (50) %
